# tgt: PDE4B (Homo sapiens)
# Construct: purchased Enzo Life Sciences BML-SE522-0020
# Sequence (Q07343 whole entry): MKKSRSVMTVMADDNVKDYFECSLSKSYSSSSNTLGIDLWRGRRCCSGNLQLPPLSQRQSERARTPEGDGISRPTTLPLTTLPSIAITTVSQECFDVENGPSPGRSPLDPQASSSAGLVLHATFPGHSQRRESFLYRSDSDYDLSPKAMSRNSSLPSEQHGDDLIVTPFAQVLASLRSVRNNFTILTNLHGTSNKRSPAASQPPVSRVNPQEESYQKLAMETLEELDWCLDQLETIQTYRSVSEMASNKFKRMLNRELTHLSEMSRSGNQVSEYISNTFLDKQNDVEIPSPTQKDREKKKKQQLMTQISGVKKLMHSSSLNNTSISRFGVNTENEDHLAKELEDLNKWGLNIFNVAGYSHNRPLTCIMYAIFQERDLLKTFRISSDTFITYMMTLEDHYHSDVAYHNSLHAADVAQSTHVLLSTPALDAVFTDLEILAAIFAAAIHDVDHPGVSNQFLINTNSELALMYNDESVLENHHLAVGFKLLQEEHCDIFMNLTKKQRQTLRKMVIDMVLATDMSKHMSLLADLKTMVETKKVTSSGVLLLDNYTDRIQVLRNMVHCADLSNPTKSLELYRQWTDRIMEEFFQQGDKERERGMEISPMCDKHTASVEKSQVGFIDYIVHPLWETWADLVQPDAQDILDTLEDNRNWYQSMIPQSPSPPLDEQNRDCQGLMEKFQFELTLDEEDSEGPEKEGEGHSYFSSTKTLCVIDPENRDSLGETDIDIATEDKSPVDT
# testDetails: PDE4B enzyme activity assay (PDE-Glo Phosphodiesterase Assay Kit)
# Type: biochemical
# protocolConditions: selectivity ratio
I'd appreciate it if you could supply IC50 (PDE4D)/IC50 (PDE4B) values for the items below.
# respond with the number and nothing more

IC50 (PDE4D)/IC50 (PDE4B) reading for COc1ccc([C@@H]2CN(C(=O)[C@@H](O)CO)C[C@@]2(C)[C@@H](C)O)cc1OC1CN(c2ncc(Cl)cc2F)C1 [Compound 009] : 5.99

Reported IC50 (PDE4D)/IC50 (PDE4B) of COc1ccc([C@@H]2CN(C(=O)[C@@H](O)CO)C[C@@]2(C)[C@@H](C)O)cc1OC1CN(c2cc(Cl)c(C)cn2)C1 [Compound 002] : 0.37

response.value for COc1ccc([C@@H]2CN(C(=O)[C@@H](O)CO)C[C@@]2(C)[C@@H](C)O)cc1OC1CN(c2ccc(C)c(C)n2)C1 [Compound 007] (field: IC50 (PDE4D)/IC50 (PDE4B)) = 3.37

// COc1ccc([C@@H]2CN(C(=O)[C@@H](O)CO)C[C@@]2(C)[C@@H](C)O)cc1OC1CN(c2cc(C)c(F)cn2)C1 [Compound 025] : IC50 (PDE4D)/IC50 (PDE4B) value = 2.45

Note to self: IC50 (PDE4D)/IC50 (PDE4B) recorded for CCOc1ccc(N2CC(Oc3cc([C@@H]4CN(C(=O)[C@@H](O)CO)C[C@@]4(C)[C@@H](C)O)ccc3OC)C2)nc1 [Compound 022] was 1.57
